# maps each entry to its viability, T/C
Tested on: 171881-019-R-J1-PDC multicell spheroid viability
PROTOCOL: Anticancer human tumor 171881-019-R-J1-PDC patient-derived invasive breast carcinoma cell line growth inhibition [IpAb]
EXPERIMENTAL CONTEXT: second compound 1 µM; first compound 0.0316 µM; stronger effect = lower value
Please respond with the number in % and leave the unit unwritten.

Worked set:
[[record]]
molecule = "COc1c(OCCCN2CCOCC2)ccc2c3n(c(=NC(=O)c4cnc(N)nc4)nc12)CCN3 + CCN1CCN(Cc2ccc(Nc3ncc(F)c(-c4cc(F)c5nc(C)n(C(C)C)c5c4)n3)nc2)CC1"
quantity_name = "viability, T/C"
output_unit = "%"
assay_result = 56.6

[[record]]
molecule = "CC(C)n1nc(-c2ccc3oc(N)nc3c2)c2c(N)ncnc21 + CCN1CCN(Cc2ccc(Nc3ncc(F)c(-c4cc(F)c5nc(C)n(C(C)C)c5c4)n3)nc2)CC1"
quantity_name = "viability, T/C"
output_unit = "%"
assay_result = 21.4

[[record]]
molecule = "Cn1nccc1Nc1nccc(-c2ccn(C(CO)c3ccc(Cl)c(F)c3)c(=O)c2)n1 (stereo not given) + CC(C)NCC(C(=O)N1CCN(c2ncnc3c2C(C)CC3O)CC1)c1ccc(Cl)cc1"
quantity_name = "viability, T/C"
output_unit = "%"
assay_result = 17.9

[[record]]
molecule = "Cn1ncc(Cl)c1-c1cc(C(=O)NC(CN)Cc2cccc(F)c2)sc1Cl (stereo not given) + CCN1CCN(Cc2ccc(Nc3ncc(F)c(-c4cc(F)c5nc(C)n(C(C)C)c5c4)n3)nc2)CC1"
quantity_name = "viability, T/C"
output_unit = "%"
assay_result = 122

[[record]]
molecule = "Cn1ncnc1[C@H]1c2n[nH]c(=O)c3cc(F)cc(c23)N[C@@H]1c1ccc(F)cc1 + CC(C)NCC(C(=O)N1CCN(c2ncnc3c2C(C)CC3O)CC1)c1ccc(Cl)cc1"
quantity_name = "viability, T/C"
output_unit = "%"
assay_result = 20.3


Please turn your attention to the following entry.
Task: Checklist item: viability, T/C tested on 171881-019-R-J1-PDC multicell spheroid viability, entry C=CC(=O)N1CCN(c2nc(=O)n(-c3c(C)ccnc3C(C)C)c3nc(-c4c(O)cccc4F)c(F)cc23)C(C)C1 (stereo not given) + CCN1CCN(Cc2ccc(Nc3ncc(F)c(-c4cc(F)c5nc(C)n(C(C)C)c5c4)n3)nc2)CC1 , value?
Output: 148

====

System: 171881-019-R-J1-PDC multicell spheroid viability
PROTOCOL: Anticancer human tumor 171881-019-R-J1-PDC cell line growth inhibition [IpAb]; active means viability on the fitted dose curve at most 10% of control; inactive means the rest;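 further: spheroids exposed to the agents for seven days before readout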
EXPERIMENTAL CONTEXT: second compound 1 µM; first compound 0.3 µM
Could you please pick one outcome from this set? yes (1) = active, no (0) = inactive

Would you please look over these solved cases?
[[record]]
compound = "Cn1cnc2c(F)c(Nc3ccc(Br)cc3Cl)c(C(=O)NOCCO)cc21 + CCN1CCN(Cc2ccc(Nc3ncc(F)c(-c4cc(F)c5nc(C)n(C(C)C)c5c4)n3)nc2)CC1"
answer_label = "no (0)"

[[record]]
compound = "CC(C)(C)c1cnc(CSc2cnc(NC(=O)C3CCNCC3)s2)o1 + CC(C)NCC(C(=O)N1CCN(c2ncnc3c2C(C)CC3O)CC1)c1ccc(Cl)cc1"
answer_label = "no (0)"

[[record]]
compound = "Cn1cnc2c(F)c(Nc3ccc(Br)cc3Cl)c(C(=O)NOCCO)cc21 + CC(C)NCC(C(=O)N1CCN(c2ncnc3c2C(C)CC3O)CC1)c1ccc(Cl)cc1"
answer_label = "no (0)"

[[record]]
compound = "CC(=O)c1c(C)c2cnc(Nc3ccc(N4CCNCC4)cn3)nc2n(C2CCCC2)c1=O + CC(C)NCC(C(=O)N1CCN(c2ncnc3c2C(C)CC3O)CC1)c1ccc(Cl)cc1"
answer_label = "no (0)"

[[record]]
compound = "CC(=O)c1c(C)c2cnc(Nc3ccc(N4CCNCC4)cn3)nc2n(C2CCCC2)c1=O + CCN1CCN(Cc2ccc(Nc3ncc(F)c(-c4cc(F)c5nc(C)n(C(C)C)c5c4)n3)nc2)CC1"
answer_label = "no (0)"


--- query ---
Task: Record lookup: outcome of this test for CC(C)(C)c1cnc(CSc2cnc(NC(=O)C3CCNCC3)s2)o1 + CCN1CCN(Cc2ccc(Nc3ncc(F)c(-c4cc(F)c5nc(C)n(C(C)C)c5c4)n3)nc2)CC1 ?
Output: yes (1)

====

Test system: 171881-019-R-J1-PDC multicell spheroid viability
PROTOCOL: Anticancer human tumor 171881-019-R-J1-PDC cell line growth inhibition [IpAb];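 further: spheroids exposed to the agents for seven days before readout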
EXPERIMENTAL CONTEXT: curve of compound
Description: Combinatorial screen of targeted agents with ipatasertib and abemaciclib in multi-cell type tumor spheroids […] Compounds. […] If the clinical Cmax for an agent had not been determined, the highest concentration tested was 10 microM. NCI60 Cell Culture. […] The optimal seeding densities for each of the cell lines at each time point assessed were determined prior to performing the concentration response studies. […]
QUANTITY NAME: IC50

Solved entries (count: 2):
[[record]]
sample_smiles = "CCCS(=O)(=O)Nc1ccc(F)c(C(=O)c2c[nH]c3ncc(-c4ccc(Cl)cc4)cc23)c1F"
assay_result = "> 10000 nM"

[[record]]
sample_smiles = "Cn1ncnc1[C@H]1c2n[nH]c(=O)c3cc(F)cc(c23)N[C@@H]1c1ccc(F)cc1"
assay_result = "> 100 nM"


Task: Given CC(=O)c1c(C)c2cnc(Nc3ccc(N4CCNCC4)cn3)nc2n(C2CCCC2)c1=O , state its recorded IC50.
Output: > 300 nM

====

// reported viability, T/C per item
Test system: 171881-019-R-J1-PDC multicell spheroid viability
PROTOCOL: Anticancer human tumor 171881-019-R-J1-PDC cell line growth inhibition [IpAb];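 further: spheroids exposed to the agents for seven days before readout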
EXPERIMENTAL CONTEXT: second compound 1 µM; first compound 1 µM; stronger effect = lower value

Recorded results for 2 compounds are shown here.
[[record]]
compound = "C=CC(=O)N1CCN(c2nc(=O)n(-c3c(C)ccnc3C(C)C)c3nc(-c4c(O)cccc4F)c(F)cc23)C(C)C1 (stereo unspecified) + CCN1CCN(Cc2ccc(Nc3ncc(F)c(-c4cc(F)c5nc(C)n(C(C)C)c5c4)n3)nc2)CC1"
assay_result = "143%"

[[record]]
compound = "Cc1nc(NC(=O)N2CCCC2C(N)=O)sc1-c1ccnc(C(C)(C)C(F)(F)F)c1 (stereo unspecified) + CCN1CCN(Cc2ccc(Nc3ncc(F)c(-c4cc(F)c5nc(C)n(C(C)C)c5c4)n3)nc2)CC1"
assay_result = "64.1%"


Task: Find the recorded viability, T/C belonging to CCCS(=O)(=O)Nc1ccc(F)c(C(=O)c2c[nH]c3ncc(-c4ccc(Cl)cc4)cc23)c1F + CCN1CCN(Cc2ccc(Nc3ncc(F)c(-c4cc(F)c5nc(C)n(C(C)C)c5c4)n3)nc2)CC1 and report it.
Output: 137%

Task: Please answer likewise for Cn1nccc1Nc1nccc(-c2ccn(C(CO)c3ccc(Cl)c(F)c3)c(=O)c2)n1 (stereo unspecified) + CC(C)NCC(C(=O)N1CCN(c2ncnc3c2C(C)CC3O)CC1)c1ccc(Cl)cc1
Output: 2.46%

Task: Request: C=CCn1c(=O)c2cnc(Nc3ccc(N4CCN(C)CC4)cc3)nc2n1-c1cccc(C(C)(C)O)n1 + CCN1CCN(Cc2ccc(Nc3ncc(F)c(-c4cc(F)c5nc(C)n(C(C)C)c5c4)n3)nc2)CC1
Output: 98.8%

Task: Now the same for Cn1ncc(Cl)c1-c1cc(C(=O)NC(CN)Cc2cccc(F)c2)sc1Cl (stereo unspecified) + CC(C)NCC(C(=O)N1CCN(c2ncnc3c2C(C)CC3O)CC1)c1ccc(Cl)cc1
Output: 9.71%

====

System: 171881-019-R-J1-PDC multicell spheroid viability
PROTOCOL: Anticancer human tumor 171881-019-R-J1-PDC cell line growth inhibition [IpAb];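 further: spheroids exposed to the agents for seven days before readout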
EXPERIMENTAL CONTEXT: second compound 0.316 µM; first compound 0.1 µM; stronger effect = lower value
viability, T/C: recorded values
The response must be a number in % with no trailing unit.

Task: Consider the compound Cn1ncnc1[C@H]1c2n[nH]c(=O)c3cc(F)cc(c23)N[C@@H]1c1ccc(F)cc1 + CC(C)NCC(C(=O)N1CCN(c2ncnc3c2C(C)CC3O)CC1)c1ccc(Cl)cc1 and give its measured viability, T/C.
Output: 60.8

Task: Now give it for C=CCn1c(=O)c2cnc(Nc3ccc(N4CCN(C)CC4)cc3)nc2n1-c1cccc(C(C)(C)O)n1 + CCN1CCN(Cc2ccc(Nc3ncc(F)c(-c4cc(F)c5nc(C)n(C(C)C)c5c4)n3)nc2)CC1 too.
Output: 137

Task: Would you kindly repeat that for CC1(C)CCC(CN2CCN(c3ccc(C(=O)NS(=O)(=O)c4ccc(NCC5CCOCC5)c([N+](=O)[O-])c4)c(Oc4cnc5[nH]ccc5c4)c3)CC2)=C(c2ccc(Cl)cc2)C1 + CC(C)NCC(C(=O)N1CCN(c2ncnc3c2C(C)CC3O)CC1)c1ccc(Cl)cc1 ?
Output: 96.8
